Compiled Ki measurements on Adenosine receptor A2a (Homo sapiens, UniProt P29274) taken from the literature.
endpoint-label: Ki (nM)

Consider the worked cases shown below.
Cc1cc(-c2sc(NC(=O)N3CCC4(CCC(=O)N4C)CC3)nc2-c2cccc(C#N)c2)cc(C)n1 | 5.63
CC(=O)CCc1nc(N)c2nc(-n3nccn3)n(C)c2n1 | 12
NCCC(=O)N(CCc1c[nH]c2ccccc12)C(C(=O)NC1CCCCC1)c1ccc(Br)cc1Br (centres unmarked) | 1600
Cc1cc(-c2sc(NC(=O)N3CC4(COC4)C3)nc2-c2cccc(C#N)c2)cc(CO)n1 | 0.61
Cc1c(Cn2nc[nH]c2=O)sc2c1c(=O)n(C1CC1)c(=O)n2CCC(F)(F)F | 3000

[A] N#Cc1cccc(-c2nn3ccc(NCc4ccccc4)nc3c2C#N)c1
[B] Cc1cc(-c2sc(NC(=O)N3CC4(COC4)C3)nc2-c2cccc(C#N)c2)c(F)c(C)n1
Could you tell me which of these two has the smaller Ki figure? First: A Second: B Write the label of whichever entry you select.
B

====

Literature roundup of Adenosine receptor A2a (Homo sapiens) data, read-out Ki.
endpoint-label: Ki (nM)

Some molecules with known Ki results, for comparison:
Cc1cc(-c2c(-c3cccc(C#N)c3)nn3ccc(N4CC5CCC(C4)O5)nc23)cc(Cl)n1 | 1.5
CCn1nccc1-c1c(-c2cccc(C#N)c2)nn2ccc(N3CC4CCC(C3)O4)nc12 | 15.2
Cc1cc(-c2c(-c3cccc(C#N)c3)nn3ccc(N4CCN(C)C(CO)C4)nc23)cc(Cl)n1 (stereo not shown) | 1.3
CC(=O)Nc1cc(-c2sc(NC(=O)N3CC4(COC4)C3)nc2-c2cccc(C#N)c2)cc(C)n1 | 1.86
Cc1cc(-c2sc(NC(=O)N3CC4(CCNC4=O)C3)nc2-c2cccc(C#N)c2)cc(C)n1 | 1.47

[P] Cc1cc(-c2c(-c3cccc(C#N)c3)nn3ccc(C(=O)N[C@H]4CNC[C@@H]4O)nc23)cc(Cl)n1
[Q] Cc1cc(-c2c(-c3cccc(C#N)c3)nn3ccc(NCCO)nc23)cc(Cl)n1
[R] CCn1c(=O)c2c(C)c(CN3CCNC3=O)sc2n(CC2CCO2)c1=O (single isomer, unassigned; enantiomer 1)
Thanks in advance: please rank these 3 entries by Ki, highest to lowest. Give the labels in the order requested.
R, P, Q

[1] Cc1cc(-c2c(-c3cccc(C#N)c3)nn3ccc(NCC(C)(C)O)nc23)cc(C(F)F)n1
[2] Cc1cc(-c2sc(NC(=O)N3CCC4(CC3)CNC(=O)N4)nc2-c2cccc(C#N)c2)cc(C)n1
[3] Nc1ccn2nc(-c3cccc(F)c3)c(Br)c2n1
[4] Cc1cc(-c2sc(NC(=O)N3CCNC[C@@H]3CO)nc2-c2cccc(C#N)c2)cc(C)n1
[5] CCn1c(=O)c2c(C)c(Cn3cn[nH]c3=O)sc2n(CCC(F)(F)F)c1=O
Rank descending by Ki. List the labels according to the requested ordering.
5, 3, 4, 1, 2

====

Here, compounds appear alongside pKi reported for Adenosine receptor A2a (Homo sapiens, UniProt P29274) in the literature.
pKi: −log10 of the molar value.
endpoint-label: pKi

O=C(NCc1ccccc1)c1ccn2nc(-c3ccco3)cc2n1 | 6.31
CCn1nccc1-c1c(-c2cccc(C#N)c2)nn2ccc(N3CCNCC3)nc12 | 6.87
Cc1ccc(-c2nn3ccc(NCc4ccccc4)nc3c2C#N)o1 | 8.12

[1] Cc1cc(-c2sc(NC(=O)N3CC4(COC4)C3)nc2-c2cccc(C#N)c2)cc(C)[n+]1[O-]
[2] Cl.Cn1cc(-n2c(-c3cccc(F)c3)nc3c(N)ncnc32)ccc1=O
[3] Cc1cc(-c2c(-c3cccc(C#N)c3)nn3ccc(NC[C@@H]4COCCN4)nc23)cc(Cl)n1
Your job: order these 3 records by pKi, ascending. Give your ranking as a list of the labels in the requested order.
3, 2, 1

====

Below: compounds with Ki recorded for Adenosine receptor A2a (Homo sapiens, UniProt P29274) in separate published works.
endpoint-label: Ki (nM)

Recorded results for 3 compounds are shown here.
Nc1nc2c(cnn2C(C(=O)N2CCc3ccccc3C2)c2ccccc2)c2nc(-c3ccco3)nn12 (single isomer, unassigned) | 0.89
N#Cc1c(-c2cccc(F)c2)nn2ccc(N)nc12 | 30.9
Cc1cc(-c2c(-c3cccc(C#N)c3)nn3ccc(C(=O)N[C@@H](C)C(C)(C)O)nc23)cc(CO)n1 | 0.4

[P] Cc1cc(-c2sc(NC(=O)N3CCNCC34CCC4)nc2-c2cccc(C#N)c2)cc(C)n1
[Q] Cc1cc(-c2c(-c3cccc(C#N)c3)nn3ccc(C(=O)NCCC(C)(C)O)nc23)cc(Cl)n1
[R] Cc1cc(-c2sc(NC(=O)N3CCC4(CC3)CNC4=O)nc2-c2cccc(C#N)c2)cc(C)n1
[S] Cc1cc(-c2sc(NC(=O)N3CCC(C)(N)CC3)nc2-c2cccc(C#N)c2)cc(Cl)n1
Arrange these 4 compounds in increasing order of Ki. Please list the labels according to the requested order.
R, Q, S, P
(R: 0.14 nM, Q: 0.3 nM, S: 2.32 nM, P: 29.4 nM)
